pKd values for the binders below.
- assayed-target: rhesus PCSK9 (rhesus)
- protocol-description: SPR (Biacore); IgG captured on anti-human IgG, PCSK9 injected
pKd: −log10 of the molar value.

{"binder": "AX1DG IgG2 (antibody, V domains shown, IgG2; also called AXIDG) VH: EVQLLESGGGLVQPGGSLRLSCKASGFTFTSYYMHWVRQAPGKGLEWIGRINPDSGSTKYNEKFKGRATISRDNSKNTLYLQMNSLRAEDTAVYYCARGGRLSWDFDVWGQGTLVTVSS VL: DIQMTQSPSSLSASVGDRVTITCRASQDISRYLAWYQQKPGKAPKLLIYAASSLQSGVPSRFSGSGSGTDFTLTISSLQPEDFATYYCAAYDYSLGGYVFGGGTKVEIK", "pKd": 8.44}
{"binder": "AX188 IgG2 (antibody, V domains shown, IgG2) VH: EVQLLESGGGLVQPGGSLRLSCKASGYTFSSYWMHWVRQAPGKGLEWIGRIDPYNGGTKYNEKFKGKATISRDNSKNTLYLQMNSLRAEDTAVYYCARYGYYLGSYAMDYWGQGTLVTVSS VL: DIQMTQSPSSLSASVGDRVTITCRASQSVSRYLAWYQQKPGKAPKLLIYAASSLQSGVPSRFSGSGSGTDFTLTISSLQPEDFATYYCEAYDYSSGPWVFGGGTKVEIKR", "pKd": 9.34}
{"binder": "AX422 IgG2 (antibody, V domains shown, also called AX422 (55N to S)) VH: EVQLLESGGGLVQPGGSLRLSCKASGYTFSSYWMHWVRQAPGKGLEWIGRIDPYSGGTKYNEKFKGKATISRDNSKNTLYLQMNSLRAEDTAVYYCARYGYYLGSYAMDYWGQGTLVTVSS VL: DIQMTQSPSSLSASVGDRVTITCRASQDVSRYLTWYQQKPGKAPKLLIYAASSLQSGVPSRFSGSGSGTDFTLTISSLQPEDFATYYCQAYDYSLSGYVFGGGTKVEIKR", "pKd": 8.71}
{"binder": "AX424 IgG2 (antibody, V domains shown, also called AX424 (55N to T)) VH: EVQLLESGGGLVQPGGSLRLSCKASGYTFSSYWMHWVRQAPGKGLEWIGRIDPYTGGTKYNEKFKGKATISRDNSKNTLYLQMNSLRAEDTAVYYCARYGYYLGSYAMDYWGQGTLVTVSS VL: DIQMTQSPSSLSASVGDRVTITCRASQDVSRYLTWYQQKPGKAPKLLIYAASSLQSGVPSRFSGSGSGTDFTLTISSLQPEDFATYYCQAYDYSLSGYVFGGGTKVEIKR", "pKd": 8.63}
